Entry source: ChEMBL document CHEMBL1687880

Test system: U2OS
Test name: Drug uptake in human U2OS cells at 20 uM after 4 hrs by fluorescence microscopy
Format: ADME, cell-based
Non-standard residues stand in square brackets, D forms with d. Residues, ends and D or L forms follow the SMILES beside them. *: point of attachment. Tetrazole5CO(2-(4-MeOPh)) = COc1ccc(-n2nnc(C(=O)*)n2)cc1; Trp(6-Cl) = N[C@@H](Cc1c[nH]c2cc(Cl)ccc12)C(=O)O; Methacryloyl = C=C(C)C(=O)*
Assay readout: Drug uptake

C=C(C)C(=O)NCCCC[C@H](NC(=O)[C@H](Cc1ccccc1)NC(=O)[C@@H](NC(=O)[C@H](CC(C)C)NC(C)=O)[C@@H](C)O)C(=O)N[C@@H](CCCN=C(N)N)C(=O)N[C@@H](Cc1ccc(O)cc1)C(=O)N[C@@H](Cc1c[nH]c2cc(Cl)ccc12)C(=O)N[C@@H](CCCN=C(N)N)C(=O)N[C@@H](CCC(N)=O)C(=O)N[C@@H](CC(C)C)C(=O)N[C@@H](CCCCNC(=O)c1nnn(-c2ccc(OC)cc2)n1)C(=O)N[C@@H](CO)C(N)=O (Ac-LTFK(Methacryloyl)RY[Trp(6-Cl)]RQLK(Tetrazole5CO(2-(4-MeOPh)))S-NH2) = Active
C=C(C)C(=O)NCCCC[C@H](NC(=O)[C@H](Cc1ccccc1)NC(=O)[C@@H](NC(=O)[C@H](CC(C)C)NC(C)=O)[C@@H](C)O)C(=O)N[C@@H](Cc1cnc[nH]1)C(=O)N[C@@H](Cc1ccc(O)cc1)C(=O)N[C@@H](Cc1c[nH]c2ccccc12)C(=O)N[C@@H](CCCN=C(N)N)C(=O)N[C@@H](CCC(N)=O)C(=O)N[C@@H](CC(C)C)C(=O)N[C@@H](CCCCNC(=O)c1nnn(-c2ccc(OC)cc2)n1)C(=O)N[C@@H](CO)C(N)=O = Active
